Numbers sourced from patent US20240327518A1.

system_name: T1, human PD-L1 on cells (human, UniProt Q9NZQ7 19-290)
T1 construct: whole, on cells; Same protein on three cell lines; also called hPD-L1; the antigen
assay_protocol: flow cytometry on MC38-hPD-L1 cells overexpressing human PD-L1
Procedure: The binding activity of the humanized antibodies to PD-L1 was measured by flow cytometry. An MC38-hPD-L1 cell line that overexpresses human PD-L1 (manufacturer: Kyinno Biotechnology (Beijing) Co., Ltd.) was thawed, and the cells were added to a 96-well plate at 1×10⁵ cells/well. Different concentrations of the antibodies to be tested (the initial concentration was 100 nM, and 5-fold gradient dilution was performed) were added, and the plate was incubated at 4° C. for 30 minutes. […]
readout: EC50 (nM)

INSERT INTO results (binder, measured_result) VALUES
  ('antibody 2 (VHH) VHH: QVQLVESGGGLVQPGGSLSLSCVASGFTFSSYAMRWVRQAPGKEPEWVAGINTGSEIVVYANSVRGRFAISRDNARDTLFLQMNSLKPEDTAVYYCATGLVSAEHDGIWGQGTQVTVSS', 0.14);

1 = antibody 4 (VHH) VHH: EVQLVESGGGLVQAGDSLRLSCTASGRDFLTYGMGWFRQAPGKEREFVASINWSGSMTYYADSVKGRFTISRDNAKNTVYLQMNSLKPGDTAVYICAARRGAVTYASSNEYEHWGQGTQVTVSS
2 = antibody 1 (VHH, expressed in mammalian cells) VHH: QVQLVESGGGLVQAGGSLRLSCAASGRSFSSSGMGWFRQAPGKDREFVATINSSGGDTYYRDSVEGRFTTSRDNAKNTMSLQMNDLKPEDTAVYYCAAKEGGGPSSIPAIYDYWGQGTQVTVSS
Ask | Would you mind telling me which has the lower recorded EC50 between 1 and 2 ? Please indicate the selected item by its label.
Reply | 2
